- target.of.assay: human mGlu2 (Homo sapiens, UniProt Q14416)
- Sequence (Q14416 19-872): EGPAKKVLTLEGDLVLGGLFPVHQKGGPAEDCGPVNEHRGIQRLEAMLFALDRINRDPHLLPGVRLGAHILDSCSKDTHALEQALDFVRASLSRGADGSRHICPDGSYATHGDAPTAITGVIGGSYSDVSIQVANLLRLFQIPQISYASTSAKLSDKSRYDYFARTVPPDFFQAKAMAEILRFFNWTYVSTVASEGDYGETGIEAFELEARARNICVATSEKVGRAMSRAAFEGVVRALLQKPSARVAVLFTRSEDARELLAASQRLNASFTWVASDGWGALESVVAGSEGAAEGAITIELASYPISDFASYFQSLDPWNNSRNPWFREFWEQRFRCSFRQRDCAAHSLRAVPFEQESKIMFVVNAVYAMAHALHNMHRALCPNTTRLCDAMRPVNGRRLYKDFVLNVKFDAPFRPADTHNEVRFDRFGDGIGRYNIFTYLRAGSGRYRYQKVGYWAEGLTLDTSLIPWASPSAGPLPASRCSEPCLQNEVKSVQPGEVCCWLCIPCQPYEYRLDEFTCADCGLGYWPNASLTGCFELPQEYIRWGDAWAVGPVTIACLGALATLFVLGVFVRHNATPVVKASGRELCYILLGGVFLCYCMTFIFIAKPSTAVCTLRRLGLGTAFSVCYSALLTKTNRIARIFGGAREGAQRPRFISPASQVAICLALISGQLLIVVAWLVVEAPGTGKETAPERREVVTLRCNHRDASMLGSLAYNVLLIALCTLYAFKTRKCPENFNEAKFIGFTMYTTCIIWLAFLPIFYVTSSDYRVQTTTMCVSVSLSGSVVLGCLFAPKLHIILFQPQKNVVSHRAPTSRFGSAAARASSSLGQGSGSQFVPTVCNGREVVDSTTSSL
Threshold 4 µM: IC50 strictly smaller gives Satisfied, otherwise Not satisfied.

1) CC(C)n1nccc1-c1cc(C2=CCC3(CC2)OCCO3)cc2c1CNC2=O [Compound 87]	Satisfied
2) O=C1NCc2c1cc(-c1ccc(F)cc1F)cc2C1CCNC1 (stereo not shown) [Compound B6]	Not satisfied
3) COc1ccc(-c2cc3c(c(-c4cnsc4)c2)CNC3=O)c(F)c1 [Compound 44]	Satisfied

In the record for O=C1NCc2c1cc(-c1ccc(F)cc1F)cc2-c1cnc2ccccc2c1 [Compound 25] , is IC50 less than 4 µM?
Satisfied

# strict comparison: is reported IC50 < 4 µM? input = CC(C)(O)C1CCN(c2cc(-c3ccc(F)cc3F)cc3c2CNC3=O)C1 (stereo not shown) [Compound A8]
Satisfied

Is it true that IC50 reported for N#Cc1ccc(-c2cc3c(c(-c4cnsc4)c2)CNC3=O)c(F)c1 [Compound 43] is less than 4 µM?
Not satisfied

Hello, is IC50 of the following molecule strictly smaller than 4 µM? O=Cc1ccc(-c2cc3c(c(-c4cnsc4)c2)CNC3=O)c(F)c1F [Compound 58]
Not satisfied

----------
Reported pIC50 by item:
- target.of.assay: human mGlu2 (Homo sapiens)
// pIC50 here means minus log10 of the molar concentration (mol/L)

For record Cn1cc(-c2cc(-c3ccc(F)cc3F)cc3c2CNC3=O)cn1 the listed pIC50 is 6.74

Measured pIC50, O=C1NCc2c1cc(-c1ccc(F)cc1F)cc2-c1ccc(C2CC2)nc1 : 5.91

So, O=C1NCc2c1cc(-c1ccc(F)cc1F)cc2-c1ccc2nccn2c1 ? Its pIC50 was 6.70
